Please go through the items and note down their pIC50.
Quick note: pIC50 means taking -log10 of the concentration in moles per liter.

Measured pIC50 for this entry COc1cc(NC(=O)c2ccc3cc(-c4ccccc4)nn3c2)ccn1 [Roche-Dataset for PDE10A, Compound 365] on cAMP and cAMP-inhibited cGMP 3',5'-cyclic phosphodiesterase 10A (Homo sapiens): 6.84

Summary: Cc1cc(NC(=O)c2c(C(=O)N3CCC3)cnn2C)cc(N)n1 [Roche-Dataset for PDE10A, Compound 1077] , cAMP and cAMP-inhibited cGMP 3',5'-cyclic phosphodiesterase 10A (Homo sapiens), pIC50 = 6.88

# lookup: Cc1nccc2nc(CCc3nc(N4CCCC4)nn3C)nn12 [Roche-Dataset for PDE10A, Compound 714] on cAMP and cAMP-inhibited cGMP 3',5'-cyclic phosphodiesterase 10A (Homo sapiens), pIC50 = 7.08
